Reported Selectivity coefficient is given for each of the following compounds.
experiment: Selectivity coefficient as ratio of Kcat/Km for MAO-A and Kcat/Km for MAO-B
Number only, no unit.

Known Selectivity coefficient results, listed for orientation:
Cc1ccc(OC2=CCN(C)CC2)cc1	0.3
CN1CC=C(Oc2cccc(Cl)c2)CC1	5.99
COc1ccc(OC2=CCN(C)CC2)cc1	2.08
CN1CC=C(Oc2cccc([N+](=O)[O-])c2)CC1	1.21
CN1CC=C(Oc2ccc(-c3ccccc3)cc2)CC1	4.71

Now turn to the next compound.
stdin: Selectivity coefficient lookup needed for COc1ccccc1OC1=CCN(C)CC1 , thanks.
stdout: 1.01

Sourced from ChEMBL document CHEMBL1128681
